Test system: Rhizopus
Experiment: Antifungal activity against Rhizopus; for IZ: test concentration or dose not given here
Format: functional
Activity calls are given as the source filed them. No cut-off for these calls is given here.
QUANTITY_KIND: inhibition zone (IZ)

Example entries begin here.
# MOLECULE, EXPERIMENTAL_SYSTEM, inhibition zone (IZ)
data = [
    ("COC(=O)O/N=C1\\CC(c2ccccc2)N(C)C(c2ccccc2)C1C (stereo not given)", "Rhizopus", "inactive"),
    ("CC(Cl)OC(=O)O/N=C1\\CC(c2ccccc2)N(C)C(c2ccccc2)C1C(C)C (stereo not given)", "Rhizopus", "22 mm"),
    ("CCOC(=O)O/N=C1\\CC(c2ccccc2)N(C)C(c2ccccc2)C1C (stereo not given)", "Rhizopus", "inactive"),
    ("COC(=O)O/N=C1\\CC(c2ccccc2)N(C)C(c2ccccc2)C1C(C)C (stereo not given)", "Rhizopus", "inactive"),
]

# input for lookup
Any idea what its inhibition zone (IZ) is? The molecule is CCOC(=O)O/N=C1\CC(c2ccccc2)N(C)C(c2ccccc2)C1CC (stereo not given)
12 mm

Data provenance: ChEMBL document CHEMBL2380238
